subject.of.test: PKCα (Homo sapiens, UniProt P17252)
method.description: [3H]PDBu displacement, 96-well plate filtration binding assay
test.conditions: 20 μM compound concentration; mean + SEM, n = 2–8
Residual [^3H]PDBu binding to PKCα (% of control) values by entry

Please review the following examples before continuing.
compound: CCCCCCCOC(=O)c1nc(CO)nc(OCCCCCCC)c1C
subject.of.test: PKCα (Homo sapiens, UniProt P17252)
experimental.value: 88.5 ± 5.7 % of control
--
compound: O=C(OCc1cccc(C(F)(F)F)c1)c1cc(C(=O)OCc2cccc(C(F)(F)F)c2)nc(CO)n1
subject.of.test: PKCα (Homo sapiens, UniProt P17252)
experimental.value: 111.8 ± 6.5 % of control
--
compound: COC(=O)c1nc(CO)nc(OCc2cccc(C(F)(F)F)c2)c1C
subject.of.test: PKCα (Homo sapiens, UniProt P17252)
experimental.value: 106.7 ± 5.0 % of control
--
compound: O=C(OCc1cccc(C(F)(F)F)c1)c1cc(CO)cc(C(=O)OCc2cccc(C(F)(F)F)c2)c1 [HMI-1a3, reference compound]
subject.of.test: PKCα (Homo sapiens, UniProt P17252)
experimental.value: 54.8 ± 2.6 % of control
--
compound: CCCCC(CC)OC(=O)c1cc(C(=O)OCC)nc(CO)n1 (stereo not drawn)
subject.of.test: PKCα (Homo sapiens, UniProt P17252)
experimental.value: 98.2 ± 1.6 % of control
--
compound: CCCCC(CC)OC(=O)c1nc(CO)nc(OCc2cccc(C(F)(F)F)c2)c1C (stereo not drawn)
subject.of.test: PKCα (Homo sapiens, UniProt P17252)
experimental.value: 86.8 ± 7.8 % of control
--
compound: CCCCCC(CC)OC(=O)c1cc(C(=O)OC(CC)CCCCC)nc(CO)n1 (stereo not drawn)
subject.of.test: PKCα (Homo sapiens, UniProt P17252)
experimental.value: 88.3 ± 2.7 % of control
--
compound: CCCCCCCCOC(=O)c1cc(C(=O)OCCCCCCCC)nc(CO)n1
subject.of.test: PKCα (Homo sapiens, UniProt P17252)
experimental.value: 104.8 ± 5.3 % of control
--
compound: CCCCCCCCCCCOC(=O)c1cc(C(=O)OCCCCCCCCCCC)nc(CO)n1
subject.of.test: PKCα (Homo sapiens, UniProt P17252)
experimental.value: 103.7 ± 5.3 % of control
--
compound: CCCCCCOC(=O)c1nc(CO)nc(OCCCCCC)c1C
subject.of.test: PKCα (Homo sapiens, UniProt P17252)
experimental.value: 85.3 ± 7.4 % of control

Prompt line: Param item = CCCCC(CC)Oc1nc(CO)nc(C(=O)OCc2cccc(C(F)(F)F)c2)c1C (stereo not drawn) ; retrieve measured Residual [^3H]PDBu binding to PKCα (% of control).
Response line: 87.2 ± 3.1 % of control

Prompt line: Param item = CCCC(CCC)COC(=O)c1nc(CO)nc(OCC(CCC)CCC)c1C ; retrieve measured Residual [^3H]PDBu binding to PKCα (% of control).
Response line: 89.7 ± 7.1 % of control

Prompt line: Param item = CCCCCCCOC(=O)c1cc(C(=O)OCCCCCCC)nc(CO)n1 ; retrieve measured Residual [^3H]PDBu binding to PKCα (% of control).
Response line: 94.1 ± 2.4 % of control

Prompt line: Param item = CCCCC(CC)Oc1nc(CO)nc(C(=O)OC)c1C (stereo not drawn) ; retrieve measured Residual [^3H]PDBu binding to PKCα (% of control).
Response line: 110.7 ± 5.5 % of control

Prompt line: Param item = CCCCCCCCOC(=O)c1nc(CO)nc(OCCCCCCCC)c1C ; retrieve measured Residual [^3H]PDBu binding to PKCα (% of control).
Response line: 93.5 ± 6.5 % of control

Prompt line: Param item = Cc1c(OCc2cccc(C(F)(F)F)c2)nc(CO)nc1C(=O)OCc1cccc(C(F)(F)F)c1 ; retrieve measured Residual [^3H]PDBu binding to PKCα (% of control).
Response line: 90.5 ± 6.0 % of control

Prompt line: Param item = CCCCCCCOc1nc(CO)nc(C(=O)OCc2cccc(C(F)(F)F)c2)c1C ; retrieve measured Residual [^3H]PDBu binding to PKCα (% of control).
Response line: 87.2 ± 6.0 % of control

Prompt line: Param item = CCCCC(CC)OC(=O)c1cc(C(=O)OC(CC)CCCC)nc(CO)n1 (stereo not drawn) ; retrieve measured Residual [^3H]PDBu binding to PKCα (% of control).
Response line: 86.7 ± 7.7 % of control

###

subject.of.test: PKCα (Homo sapiens, UniProt P17252)
method.description: [3H]PDBu displacement, 96-well plate filtration binding assay
test.conditions: 20 μM compound concentration; mean + SEM, n = 2–8
Residual [^3H]PDBu binding to PKCα (% of control) values by entry

Please review the following examples before continuing.
compound: CCCCCCCOc1nc(CO)nc(C(=O)OC(CC)CCCC)c1C (stereo not drawn)
subject.of.test: PKCα (Homo sapiens, UniProt P17252)
experimental.value: 87.2 ± 1.7 % of control

compound: CCOC(=O)c1cc(C(=O)OCC)nc(CO)n1
subject.of.test: PKCα (Homo sapiens, UniProt P17252)
experimental.value: 116.3 ± 5.9 % of control

Continue with the compound presented below.
Prompt line: Param item = CCCCC(CC)OC(=O)c1nc(CO)nc(OC(CC)CCCC)c1C (stereo not drawn) ; retrieve measured Residual [^3H]PDBu binding to PKCα (% of control).
Response line: 91.4 ± 2.3 % of control
